- systemName: Metabotropic glutamate receptor 5 (Rattus norvegicus) (UniProt P31424)
- Sequence (P31424 21-1203 limits assumed): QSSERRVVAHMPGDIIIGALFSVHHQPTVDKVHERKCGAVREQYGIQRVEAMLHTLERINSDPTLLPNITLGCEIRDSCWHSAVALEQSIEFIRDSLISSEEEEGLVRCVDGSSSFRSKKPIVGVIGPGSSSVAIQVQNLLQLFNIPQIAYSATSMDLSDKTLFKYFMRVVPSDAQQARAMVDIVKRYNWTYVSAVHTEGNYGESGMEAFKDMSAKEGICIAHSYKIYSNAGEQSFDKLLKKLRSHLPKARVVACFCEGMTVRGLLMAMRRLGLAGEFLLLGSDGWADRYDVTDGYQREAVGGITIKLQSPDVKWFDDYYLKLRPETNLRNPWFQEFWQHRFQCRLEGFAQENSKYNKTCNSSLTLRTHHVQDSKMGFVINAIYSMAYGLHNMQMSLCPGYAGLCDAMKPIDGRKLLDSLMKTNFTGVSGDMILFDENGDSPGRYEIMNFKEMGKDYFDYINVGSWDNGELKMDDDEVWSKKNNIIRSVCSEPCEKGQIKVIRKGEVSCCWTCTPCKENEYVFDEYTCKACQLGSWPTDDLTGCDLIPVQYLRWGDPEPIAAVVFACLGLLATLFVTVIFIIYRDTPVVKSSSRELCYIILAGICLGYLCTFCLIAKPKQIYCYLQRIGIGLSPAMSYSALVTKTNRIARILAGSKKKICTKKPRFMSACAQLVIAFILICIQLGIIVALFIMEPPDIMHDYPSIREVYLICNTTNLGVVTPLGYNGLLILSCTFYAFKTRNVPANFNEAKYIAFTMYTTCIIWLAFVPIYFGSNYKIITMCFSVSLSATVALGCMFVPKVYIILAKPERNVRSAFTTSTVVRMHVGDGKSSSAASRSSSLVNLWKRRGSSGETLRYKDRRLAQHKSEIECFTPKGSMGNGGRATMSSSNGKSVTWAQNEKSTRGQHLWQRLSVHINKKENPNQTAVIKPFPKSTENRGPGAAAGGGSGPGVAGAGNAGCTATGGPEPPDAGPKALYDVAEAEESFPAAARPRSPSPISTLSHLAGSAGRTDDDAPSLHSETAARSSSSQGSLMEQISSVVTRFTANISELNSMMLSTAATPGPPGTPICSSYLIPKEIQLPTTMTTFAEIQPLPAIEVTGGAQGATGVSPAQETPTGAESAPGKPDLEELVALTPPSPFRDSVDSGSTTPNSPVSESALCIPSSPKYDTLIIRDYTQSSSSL
- protocolNotes: Displacement of [3H]MPEP from rat brain mGluR5 expressed in CHO cells by scintillation counting method
- Assay type: cell-based
pKi: −log10 of the molar value.
# pKi annotations
resultType: pKi

[[record]]
compound = "CCOC(=O)C1=C(C)NC(C)=C(C(=O)OCc2cn(CCOCCOCCOCCOCCOCCn3cc(COC(=O)C4=C(C)NC(C)=C(C(=O)OCC)C4c4c(-c5ccccc5)noc4C)nn3)nn2)C1c1c(-c2ccccc2)noc1C (stereo unspecified)"
systemname = "Metabotropic glutamate receptor 5 (Rattus norvegicus) (UniProt P31424)"
resulttype = "pKi"
signqualifier = "<"
reading = 5.00

[[record]]
compound = "CCOC(=O)C1=C(C)NC(C)=C(C(=O)OCc2cn(CCc3ccccc3)nn2)C1c1c(-c2ccc(Br)cc2)noc1C (stereo unspecified)"
systemname = "Metabotropic glutamate receptor 5 (Rattus norvegicus) (UniProt P31424)"
resulttype = "pKi"
signqualifier = "="
reading = 5.71

[[record]]
compound = "CCOC(=O)C1=C(C)NC(C)=C(C(=O)OCc2cn(CCOCCOCCOCCOCCOCCn3cc(COC(=O)C4=C(C)NC(C)=C(C(=O)OCC)C4c4c(-c5cccc(Br)c5)noc4C)nn3)nn2)C1c1c(-c2cccc(Br)c2)noc1C (stereo unspecified)"
systemname = "Metabotropic glutamate receptor 5 (Rattus norvegicus) (UniProt P31424)"
resulttype = "pKi"
signqualifier = "="
reading = 5.06

[[record]]
compound = "CCOC(=O)C1=C(C)NC(C)=C(C(=O)OCc2cn(CCOCCOCCOCCOCCOCCn3cc(COC(=O)C4=C(C)NC(C)=C(C(=O)OCC)C4c4c(-c5ccc(Br)cc5)noc4C)nn3)nn2)C1c1c(-c2ccc(Br)cc2)noc1C (stereo unspecified)"
systemname = "Metabotropic glutamate receptor 5 (Rattus norvegicus) (UniProt P31424)"
resulttype = "pKi"
signqualifier = "="
reading = 6.71

[[record]]
compound = "CCOC(=O)C1=C(C)NC(C)=C(C(=O)OCc2cn(CCOCCOCCOCCOCCOCCn3cc(COC(=O)C4=C(C)NC(C)=C(C(=O)OCC)C4c4c(-c5ccccc5Br)noc4C)nn3)nn2)C1c1c(-c2ccccc2Br)noc1C (stereo unspecified)"
systemname = "Metabotropic glutamate receptor 5 (Rattus norvegicus) (UniProt P31424)"
resulttype = "pKi"
signqualifier = "="
reading = 5.31

[[record]]
compound = "CCOC(=O)C1=C(C)NC(C)=C(C(=O)OCC)C1c1c(-c2cccc(Br)c2)noc1C"
systemname = "Metabotropic glutamate receptor 5 (Rattus norvegicus) (UniProt P31424)"
resulttype = "pKi"
signqualifier = "<"
reading = 5.00


====

- systemName: MDR-1 (P-glycoprotein, ABCB1) (Homo sapiens)
- Sequence (P08183 whole entry): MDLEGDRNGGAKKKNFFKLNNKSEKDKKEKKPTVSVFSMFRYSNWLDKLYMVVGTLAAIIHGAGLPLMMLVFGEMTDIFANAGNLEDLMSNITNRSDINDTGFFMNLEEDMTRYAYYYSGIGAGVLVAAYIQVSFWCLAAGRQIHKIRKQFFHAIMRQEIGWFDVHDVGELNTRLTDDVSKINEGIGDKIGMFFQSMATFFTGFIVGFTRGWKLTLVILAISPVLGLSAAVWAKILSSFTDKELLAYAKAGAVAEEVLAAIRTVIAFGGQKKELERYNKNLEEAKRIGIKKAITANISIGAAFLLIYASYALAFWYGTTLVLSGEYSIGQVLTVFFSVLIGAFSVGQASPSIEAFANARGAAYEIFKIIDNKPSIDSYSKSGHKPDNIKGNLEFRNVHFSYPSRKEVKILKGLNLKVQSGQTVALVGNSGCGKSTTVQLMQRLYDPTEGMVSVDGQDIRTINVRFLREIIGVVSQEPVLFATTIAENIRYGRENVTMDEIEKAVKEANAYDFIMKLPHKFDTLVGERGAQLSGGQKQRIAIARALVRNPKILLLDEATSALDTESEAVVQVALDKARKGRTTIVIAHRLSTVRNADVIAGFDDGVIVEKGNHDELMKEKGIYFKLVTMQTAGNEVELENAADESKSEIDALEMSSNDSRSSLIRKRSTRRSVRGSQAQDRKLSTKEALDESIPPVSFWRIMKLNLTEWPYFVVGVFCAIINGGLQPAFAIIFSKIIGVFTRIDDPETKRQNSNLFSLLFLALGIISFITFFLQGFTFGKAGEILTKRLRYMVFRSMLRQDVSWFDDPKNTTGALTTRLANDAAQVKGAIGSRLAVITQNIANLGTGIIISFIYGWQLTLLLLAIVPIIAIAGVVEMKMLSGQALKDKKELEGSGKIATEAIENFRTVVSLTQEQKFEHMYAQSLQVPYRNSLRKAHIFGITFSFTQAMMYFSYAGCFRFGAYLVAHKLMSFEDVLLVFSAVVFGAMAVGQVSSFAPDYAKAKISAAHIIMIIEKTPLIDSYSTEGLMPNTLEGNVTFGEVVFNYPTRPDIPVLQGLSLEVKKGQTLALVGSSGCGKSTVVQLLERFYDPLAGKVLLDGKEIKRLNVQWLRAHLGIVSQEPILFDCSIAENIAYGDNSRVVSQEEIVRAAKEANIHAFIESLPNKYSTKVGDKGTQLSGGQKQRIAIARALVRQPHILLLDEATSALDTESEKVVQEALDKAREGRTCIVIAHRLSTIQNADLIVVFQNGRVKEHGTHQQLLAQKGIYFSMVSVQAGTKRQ
- protocolNotes: Inhibition of MDR-1 in human Caco-2 cells at 10 uM after 30 mins by calcein-AM dye based fluorescence assay relative to cyclosporin
- Type: cell-based
- assayConditions: Caco-2 cells, probe calcein-AM
Quick rule: inhibition at 0.5 h, 10 µM of at least 40% means Satisfied, below that means Not satisfied.

[[record]]
molecule = "CCOC(=O)C1=C(C)NC(C)=C(C(=O)OCc2cn(CCOCCOCCOCCOCCOCCn3cc(COC(=O)C4=C(C)NC(C)=C(C(=O)OCC)C4c4c(-c5ccccc5Br)noc4C)nn3)nn2)C1c1c(-c2ccccc2Br)noc1C (centres undefined)"
assignedcategory = "Not satisfied"

[[record]]
molecule = "CCOC(=O)C1=C(C)NC(C)=C(C(=O)OCC)C1c1c(-c2ccc(Br)cc2)noc1C"
assignedcategory = "Satisfied"

[[record]]
molecule = "CCOC(=O)C1=C(C)NC(C)=C(C(=O)OCc2cn(CCOCCOCCOCCn3cc(COC(=O)C4=C(C)NC(C)=C(C(=O)OCC)C4c4c(-c5ccc(Br)cc5)noc4C)nn3)nn2)C1c1c(-c2ccc(Br)cc2)noc1C (centres undefined)"
assignedcategory = "Not satisfied"

[[record]]
molecule = "CCOC(=O)C1=C(C)NC(C)=C(C(=O)OCc2cn(CCOCCOCCn3cc(COC(=O)C4=C(C)NC(C)=C(C(=O)OCC)C4c4c(-c5ccc(Br)cc5)noc4C)nn3)nn2)C1c1c(-c2ccc(Br)cc2)noc1C (centres undefined)"
assignedcategory = "Satisfied"

[[record]]
molecule = "CCOC(=O)C1=C(C)NC(C)=C(C(=O)OCc2cn(CCc3ccccc3)nn2)C1c1c(-c2ccc(Br)cc2)noc1C (centres undefined)"
assignedcategory = "Satisfied"

[[record]]
molecule = "CCOC(=O)c1c(C)nc(C)c(C(=O)OCC)c1-c1c(-c2ccccc2)noc1C"
assignedcategory = "Not satisfied"

[[record]]
molecule = "CCOC(=O)C1=C(C)NC(C)=C(C(=O)OCC)C1c1c(-c2cccc(Br)c2)noc1C"
assignedcategory = "Satisfied"

[[record]]
molecule = "CCOC(=O)C1=C(C)NC(C)=C(C(=O)OCc2cn(CCOCCOCCOCCOCCOCCn3cc(COC(=O)C4=C(C)NC(C)=C(C(=O)OCC)C4c4c(-c5ccccc5)noc4C)nn3)nn2)C1c1c(-c2ccccc2)noc1C (centres undefined)"
assignedcategory = "Not satisfied"

[[record]]
molecule = "CCOC(=O)C1=C(C)NC(C)=C(C(=O)OCC)C1c1c(-c2ccccc2Br)noc1C"
assignedcategory = "Not satisfied"

